# system-under-test: CFTR in F508del/F508del primary CF hBE cells (Homo sapiens, UniProt P13569, DEL508-508)
# Construct: Primary cystic fibrosis human bronchial epithelial (CF hBE) cells were expanded and cultured; endogenous in cells; host or cells: primary CF human bronchial epithelial cells, genotype F508del/F508del
# procedure-text: Ussing chamber electrophysiology assay of CFTR potentiation in F508del/F508del CF bronchial epithelial cells (27° C.)
# Assay type: cell-based
measurement-type: EC50 (nM)

compound: CCC(c1cn(-c2ccccc2)nn1)n1cc(-c2cnc(C(F)(F)F)nc2)c2c(N)ncnc21 (single isomer, unassigned; enantiomer 1) [Example 129]
quantitative-readout: 10.7

compound: CCC(c1cn(-c2ccc(F)cc2F)nn1)n1cc(-c2cncnc2OC)c2c(N)ncnc21 (single isomer, unassigned; enantiomer 2) [Example 160]
quantitative-readout: 593

1 = CCC(c1cn(-c2ccc(F)c(F)c2)nn1)n1cc(-c2cncnc2OC)c2c(N)ncnc21 (single isomer, unassigned; enantiomer 2) [Example 152]
2 = Nc1ncnc2c1c(-c1ccc(Cl)cc1)cn2Cc1cnc(-c2ccccc2)[nH]1 [Example 264]
3 = CC(c1cnc(-c2ccccc2F)[nH]1)n1cc(-c2cc[nH]n2)c2c(N)ncnc21 (stereo not drawn) [Example 60]
4 = CCC(c1cn(-c2ccc(F)c(F)c2)nn1)n1cc(-c2cc(F)cnc2OC)c2c(N)ncnc21 (single isomer, unassigned; enantiomer 1) [Example 155]
Order each entry by recorded EC50, climbing from the minimum. Dear reader, please state the labels in the requested order.
4, 2, 3, 1
(4: 9.17 nM, 2: 35.4 nM, 3: 80 nM, 1: 445 nM)

====

# system-under-test: CFTR in F508del/F508del primary CF hBE cells (Homo sapiens, UniProt P13569, DEL508-508)
# Construct: Primary cystic fibrosis human bronchial epithelial (CF hBE) cells were expanded and cultured; endogenous in cells
# procedure-text: Ussing chamber electrophysiology assay of CFTR potentiation in F508del/F508del CF bronchial epithelial cells (27° C.)
pEC50: −log10 of the molar value.
measurement-type: pEC50

molecule: CC(c1cn(-c2ccccc2F)nn1)n1cc(-c2ccc(C#N)c(F)c2)c2c(N)ncnc21 (single isomer, unassigned; enantiomer 1) [Example 115]
pEC50: 6.21
--
molecule: COc1ncccc1-c1cn(Cc2nnc(-c3ccccc3F)[nH]2)c2ncnc(N)c12 [Example 253]
pEC50: 5.87

A = N#Cc1c(-c2cnc(C(F)(F)F)nc2)c2c(N)ncnc2n1Cc1cnn(-c2ccc(F)cc2F)c1 [Example 29]
B = CCC(c1cn(-c2ccccc2F)nn1)n1cc(-c2ccc(Cl)cc2)c2c(N)ncnc21 (stereo not shown) [Example 211]
Sort A and B by pEC50 descending and give the first. API: response body contains the label of the selected item.
A

====

# system-under-test: recombinant F508del V470 CFTR in Fischer rat thyroid (FRT) cells (Homo sapiens, UniProt P13569, DEL508-508)
# Sequence (P13569 with tags, fused parts or gaps DEL508-508): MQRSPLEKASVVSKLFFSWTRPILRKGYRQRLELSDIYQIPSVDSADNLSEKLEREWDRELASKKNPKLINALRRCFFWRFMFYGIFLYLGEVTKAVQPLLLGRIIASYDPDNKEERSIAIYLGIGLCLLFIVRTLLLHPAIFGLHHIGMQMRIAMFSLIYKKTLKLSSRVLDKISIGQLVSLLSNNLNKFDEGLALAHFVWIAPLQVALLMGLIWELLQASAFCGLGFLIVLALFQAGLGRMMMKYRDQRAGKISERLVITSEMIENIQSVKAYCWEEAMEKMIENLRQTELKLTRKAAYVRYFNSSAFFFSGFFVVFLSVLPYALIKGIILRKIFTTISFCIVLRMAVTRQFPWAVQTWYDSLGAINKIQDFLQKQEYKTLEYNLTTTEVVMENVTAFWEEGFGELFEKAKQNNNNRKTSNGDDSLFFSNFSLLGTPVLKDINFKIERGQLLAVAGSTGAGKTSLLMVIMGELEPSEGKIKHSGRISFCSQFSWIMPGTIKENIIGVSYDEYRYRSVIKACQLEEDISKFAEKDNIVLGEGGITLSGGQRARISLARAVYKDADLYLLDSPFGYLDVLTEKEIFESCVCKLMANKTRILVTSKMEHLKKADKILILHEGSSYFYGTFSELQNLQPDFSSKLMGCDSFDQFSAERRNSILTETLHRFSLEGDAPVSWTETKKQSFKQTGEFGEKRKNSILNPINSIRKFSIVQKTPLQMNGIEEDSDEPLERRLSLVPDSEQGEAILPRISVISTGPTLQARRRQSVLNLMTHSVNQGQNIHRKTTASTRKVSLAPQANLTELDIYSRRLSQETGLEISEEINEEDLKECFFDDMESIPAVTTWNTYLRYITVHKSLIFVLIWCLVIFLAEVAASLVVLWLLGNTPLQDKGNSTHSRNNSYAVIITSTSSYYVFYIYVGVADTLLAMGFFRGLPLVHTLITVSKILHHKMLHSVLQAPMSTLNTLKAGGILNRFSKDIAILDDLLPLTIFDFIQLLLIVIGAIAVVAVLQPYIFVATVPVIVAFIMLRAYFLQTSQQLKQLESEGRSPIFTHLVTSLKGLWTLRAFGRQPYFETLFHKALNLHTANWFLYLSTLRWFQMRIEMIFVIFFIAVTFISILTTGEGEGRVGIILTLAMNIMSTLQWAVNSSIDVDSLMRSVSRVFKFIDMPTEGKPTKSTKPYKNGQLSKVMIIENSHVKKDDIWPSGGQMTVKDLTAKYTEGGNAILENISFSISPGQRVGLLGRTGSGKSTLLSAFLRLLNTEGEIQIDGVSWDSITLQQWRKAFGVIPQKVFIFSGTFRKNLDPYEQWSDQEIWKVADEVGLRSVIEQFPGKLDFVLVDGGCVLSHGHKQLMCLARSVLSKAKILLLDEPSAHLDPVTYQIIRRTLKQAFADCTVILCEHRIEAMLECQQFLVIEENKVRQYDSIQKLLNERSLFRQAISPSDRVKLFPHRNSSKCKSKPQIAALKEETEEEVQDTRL
# procedure-text: FRT ion flux assay of F508del CFTR potentiation
# experimental-setup: FRT cells expressing F508del V470 CFTR, forskolin 20 uM, 27° C. pre-incubation
pEC50: −log10 of the molar value.
measurement-type: pEC50

I = CC(c1cn(-c2ccccc2F)nn1)n1c(C#N)c(-c2cnc(C(F)(F)F)nc2)c2c(N)ncnc21 (single isomer, unassigned) [Example 9]
II = CCC(c1cn(-c2ccc(F)cc2)nn1)n1cc(-c2cncnc2OC)c2c(N)ncnc21 (single isomer, unassigned; enantiomer 1) [Example 149]
III = Cn1ncc2c(-c3cn(Cc4cn(-c5ccccc5F)nn4)c4ncnc(N)c34)cccc21
Order by pEC50, smallest first, the items presented above. Dear reader, please state the labels in the requested order.
III, II, I

Cited source for all entries: patent US12612409B2
